Catalogue of ED50 values
tested on: serotonine-induced oedema; test: antiserotonine effect in vivo: inhibition of serotonine-induced plantar oedema; parameters: species or system rat; settings: Rattus norvegicus, po; 50 μg serotonine into plantar region of rats
OBSERVABLE: ED50 (mg/kg)

CN(C)C(=O)NNC[C@@H]1C=C2c3cccc4[nH]cc(c34)C[C@H]2N(C)C1 : 3
CC[C@@H](CO)NC(=O)[C@@H]1C=C2c3cccc4c3c(cn4C)C[C@H]2N(C)C1 [Methysergide, 1-methyl lysergic acid butanolamide, reference compound] : 0.64
CC(=O)NNC[C@@H]1C=C2c3cccc4[nH]cc(c34)C[C@H]2N(C)C1 : 0.78
CC(=O)NNC[C@@H]1C[C@@H]2c3cccc4[nH]cc(c34)C[C@H]2N(C)C1 : 3
CN(C)C(=O)NNC[C@@H]1C[C@@H]2c3cccc4[nH]cc(c34)C[C@H]2N(C)C1 : 3

* * *

Catalogue of pIC50 values
molecular target: serotonine receptors (Rattus norvegicus, UniProt P14842); construct: isolated rat uterus sensitized with diethylstibestrol; test: antiserotonine effect in vitro on isolated rat uterus sensitized with diethylstibestrol
Sequence (P14842 whole entry): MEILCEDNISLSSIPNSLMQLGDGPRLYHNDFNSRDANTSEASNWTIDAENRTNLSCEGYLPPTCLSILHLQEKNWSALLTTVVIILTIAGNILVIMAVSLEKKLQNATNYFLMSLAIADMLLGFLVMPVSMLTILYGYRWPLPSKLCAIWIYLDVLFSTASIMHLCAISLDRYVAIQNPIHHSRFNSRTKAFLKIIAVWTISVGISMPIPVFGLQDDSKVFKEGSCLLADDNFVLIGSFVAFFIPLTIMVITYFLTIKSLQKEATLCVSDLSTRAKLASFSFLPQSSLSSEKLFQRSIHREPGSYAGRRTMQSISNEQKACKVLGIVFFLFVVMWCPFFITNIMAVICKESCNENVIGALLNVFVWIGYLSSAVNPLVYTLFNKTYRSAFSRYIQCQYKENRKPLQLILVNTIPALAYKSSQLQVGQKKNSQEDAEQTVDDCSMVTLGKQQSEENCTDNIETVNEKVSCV
pIC50: −log10 of the molar value.
OBSERVABLE: pIC50

CN(C)C(=O)NNC[C@@H]1C=C2c3cccc4[nH]cc(c34)C[C@H]2N(C)C1 : 8.53
CC(=O)NNC[C@@H]1C=C2c3cccc4[nH]cc(c34)C[C@H]2N(C)C1 : 8.49
